# Test Target: T1, human apical domain of CD71 (human, UniProt P02786 189-383, limits assumed)
# T1 construct: domain: apical domain
# T1 sequence (P02786 189-383 limits assumed): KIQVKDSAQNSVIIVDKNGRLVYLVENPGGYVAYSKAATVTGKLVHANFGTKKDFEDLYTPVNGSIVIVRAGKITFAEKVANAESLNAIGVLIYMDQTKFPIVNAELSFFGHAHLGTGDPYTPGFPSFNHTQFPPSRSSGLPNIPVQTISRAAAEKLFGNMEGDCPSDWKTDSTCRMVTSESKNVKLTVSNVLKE
# Assay: primary ELISA; further: test concentration or dose not given here

{"Binder": "CD71-binding FN3 domain SEQ ID NO 373 (designed binder) MLPAPKNLVVSRVTEDSARLSWTAPDAAFDSFFIGYLEPQPPGEAISLFVPGSERSYDLTGLKPGTEYNVTIQGVKGGFPSDPLVASFTT", "RLU [RLU]": "5.73e+06"}
{"Binder": "CD71-binding FN3 domain SEQ ID NO 428 (designed binder) MLPAPKNLVVSRVTEDSARLSWTAPDAAFDSFFIGYLEPQPPGEAISLYVPGSERSYDLTGLKPGTEYNVTIQGVKGGFPSNPLIAQFTT", "RLU [RLU]": "5.9e+06"}
{"Binder": "CD71-binding FN3 domain SEQ ID NO 381 (designed binder) MLPAPKNLVVSRVTEDSARLSWTAPDAAFDSFEIAYQELSLWGEAIVLTVPGSERSYDLTGLKPGTEYYVHIGGVKGGIWSRPLSAIFTT", "RLU [RLU]": "5.14e+06"}
{"Binder": "CD71-binding FN3 domain SEQ ID NO 398 (designed binder) MLPAPKNLVVSRVTEDSARLSWTAPDAAFDSFFIGYLEPQPPGEAIYLTVPGSERSYDLTGLKPGTEYNVTIQGVKGGFPSKPLTANFTT", "RLU [RLU]": "2.07e+06"}
{"Binder": "CD71-binding FN3 domain SEQ ID NO 390 (designed binder) MLPAPKNLVVSRVTEDSARLSWTAPDAAFDSFEIGYFERAWFGEAIVLTVPGSERSYDLTGLKPGTEYAVFIGGVKGGSYSYPLSAIFTT", "RLU [RLU]": "4.78e+06"}
{"Binder": "CD71-binding FN3 domain SEQ ID NO 362 (designed binder) MLPAPKNLVVSRVTEDSARLSWTAPDAAFDSFEIAYWENNFNGEAIILIVPGSERSYDLTGLKPGTEYVVFISGVKGGTWSYPLVAQFTT", "RLU [RLU]": "4.86e+06"}
{"Binder": "CD71-binding FN3 domain SEQ ID NO 353 (designed binder) MLPAPKNLVVSRVTEDSARLSWTAPDAAFDSFFIGYLEPQPPGEAIGLFVPGSERSYDLTGLKPGTEYNVTIQGVKGGFPSNPLEARFTT", "RLU [RLU]": "6.87e+06"}
{"Binder": "CD71-binding FN3 domain SEQ ID NO 423 (designed binder) MLPAPKNLVVSRVTEDSARLSWTAPDAAFDSFFIGYLEPQPPGEAIALYVPGSERSYDLTGLKPGTEYNVTIQGVKGGFPSEPLVATFTT", "RLU [RLU]": "6.56e+06"}
{"Binder": "CD71-binding FN3 domain SEQ ID NO 363 (designed binder) MLPAPKNLVVSRVTEDSARLSWTAPDAAFDSFFIGYLEPQPPGEAIDLWVPGSERSYDLTGLKPGTEYNVTIQGVKGGFPSLPLSAIFTT", "RLU [RLU]": "4.91e+06"}

This collection of values is drawn from patent US20260151494A1.
